Quick list: Complete Media per entry.
# System: NCI-H292 lung cancer cells
# method: FDA drug screening, complete media vs cholesterol-free media with simvastatin (TABLE 2)
# Type: cell-based, human
# protocolConditions: NCI-H292 cells, FDA library drug in complete media
Note: the reply should be a number with no unit written.

See these solved cases before continuing.
O=C([O-])[C@H](O)[C@@H](O)[C@H](O)[C@H](O)CO.[Na+] [Gluconate (sodium)]    0.9873
CSCC1CN(/N=C/c2ccc([N+](=O)[O-])o2)C(=O)O1 (centres unmarked)    1.12
CC(C)(C)NCC(O)COc1cccc2c1CC(O)C(O)C2 (centres unmarked)    1.014
Cc1ccc([C@@H]2O[C@H](CO)[C@@H](O)[C@H](O)[C@H]2O)cc1Cc1ccc(-c2ccc(F)cc2)s1.O [Canagliflozin (hemihydrate)]    0.8924
CCCCC[C@](C)(O)/C=C/[C@@H]1[C@@H](C/C=C\CCCC(=O)O)[C@@H](O)C[C@H]1O.NC(CO)(CO)CO    1.306
O=C(CCBr)N1CCN(C(=O)CCBr)CC1    1.051

For reference, reported Complete Media for `NC(N)=O` stands at 1.641

For reference, reported Complete Media for O=C(O)[C@H]1/C(=C/CO)O[C@@H]2CC(=O)N21 [Clavulanate (lithium)] stands at 1.387

For reference, reported Complete Media for CCC(=O)O[C@H]1CC[C@H]2[C@@H]3CCC4=CC(=O)CC[C@]4(C)[C@H]3CC[C@]12C [Testosterone propionate] stands at 0.7669

For reference, reported Complete Media for Cc1ccccc1C(=O)Nc1ccc(C(=O)N2CCCC(O)c3cc(Cl)ccc32)c(C)c1 (centres unmarked) stands at 1.367

For reference, reported Complete Media for `NC(=O)OC[C@H](N)Cc1ccccc1` stands at 0.8852

For reference, reported Complete Media for `C[C@H](O)C(=O)Nc1c(I)c(C(=O)NC(CO)CO)c(I)c(C(=O)NC(CO)CO)c1I` stands at 1.092

----------
# Tested on: NCI-H292 lung cancer cells
# method: FDA drug screening, complete media vs cholesterol-free media with simvastatin (TABLE 2)
# Type: cell-based, human
# protocolConditions: NCI-H292 cells, FDA drug library screen, cholesterol-free media with simvastatin 0.04 μM
Structures can show the parent of a compound that is named as a salt.
Quick list: Cholesterol-free media + simvastatin (0.04 μM) per entry.
Note: the reply should be a number with no unit written.

Cc1ncc(OC[C@@]2(c3cccc(F)c3)C[C@H]2C(=O)Nc2ccc(F)cn2)c(C)n1    1.185

For reference, reported Cholesterol-free media + simvastatin (0.04 μM) for CCCCCCCCCC(=O)OCCN1CCN(CCCN2c3ccccc3Sc3ccc(C(F)(F)F)cc32)CC1 [Fluphenazine decanoate] stands at 0.7434

For reference, reported Cholesterol-free media + simvastatin (0.04 μM) for COc1ccc2cc([C@H](C)C(=O)O)ccc2c1 [Naproxen (sodium)] stands at 1.198

For reference, reported Cholesterol-free media + simvastatin (0.04 μM) for `COC(=O)N[C@H](C(=O)N1CCC[C@H]1c1nc(-c2ccc(-c3ccc(-c4c[nH]c([C@@H]5CCCN5C(=O)[C@@H](NC(=O)OC)C(C)C)n4)cc3)cc2)c[nH]1)C(C)C` stands at 0.9463

For reference, reported Cholesterol-free media + simvastatin (0.04 μM) for N=C(N)NC(=O)Cc1c(Cl)cccc1Cl [Guanfacine (hydrochloride)] stands at 1.401

For reference, reported Cholesterol-free media + simvastatin (0.04 μM) for CCCC(=O)Nc1ccc(OCC(O)CNC(C)C)c(C(C)=O)c1 (stereo not shown) [Acebutolol (hydrochloride)] stands at 1.195

For reference, reported Cholesterol-free media + simvastatin (0.04 μM) for CCCN[C@H]1CCc2nc(N)sc2C1 [Pramipexole (dihydrochloride hydrate)] stands at 1.173

For reference, reported Cholesterol-free media + simvastatin (0.04 μM) for O=c1n(CCCN2CCN(c3cccc(Cl)c3)CC2)nc2ccccn12 [Trazodone (hydrochloride)] stands at 0.8105
